target: VEGF165 (human, UniProt P15692-4 27-191); experiment: MST
Property Name: Kd
Just so you know, I need the unit written after the number.

Problem: What value of Kd has been recorded for this entry: TGTGGGGGTGGACGGGCCGGGTAGA (structured_DNA) [V7t1 (3'-Cy3)]
Solution: 75.9 nM
